Reference for the values: ChEMBL document CHEMBL4725329

# Tested on: HCT-116
# assay comment: Induction of apoptosis in human HCT-116 cells assessed as late apoptotic cells at 5 uM measured after 24 hrs by annexin-V/FITC staining based flow cytometry analysis (reference value: 2.4 %)
# Type: functional
measured endpoint: Activity (%)
Give a bare numeral; the unit % is implied.

molecule: COc1cc(-c2cc(-c3ccc(O)cc3O)nc(-c3ccccc3)n2)cc(OC)c1OC
Activity [%]: 35.2

molecule: COc1cc2c(c(OC)c1OC)-c1ccc(OC)c(=O)cc1[C@@H](NC(C)=O)CC2 [COLCHICINE]
Activity [%]: 56.4

molecule: COc1ccc(-c2cc(-c3cc(OC)c(OC)c(OC)c3)nc(-c3ccccc3)n2)cc1
Activity [%]: 48.3

Please turn your attention to the following entry.
IN: Return Activity measured with HCT-116 given this molecule: COc1cc(-c2cc(-c3cccc4ccccc34)nc(-c3ccccc3)n2)cc(OC)c1OC
OUT: 49.6

###

# Tested on: HT-29
# assay comment: Antiproliferative activity against human HT-29 cells assessed as inhibition of cell proliferation measured after 48 hrs by MTT assay
# Type: functional, cell-based
# test conditions: HT-29, 48 h
pIC50: −log10 of the molar value.
List of pIC50 values.

The examples below pair each entry with its known result.
smiles record: COc1ccc(-c2cc(-c3cc(OC)c(OC)c(OC)c3)nc(-c3ccccc3)n2)c(OC)c1
pIC50: < 4.60
--
smiles record: COc1cc(-c2cc(-c3cccs3)nc(-c3ccccc3)n2)cc(OC)c1OC
pIC50: < 4.60

IN: Give the measured pIC50 of COc1cc(-c2cc(-c3ccc(C)cc3)nc(-c3ccccc3)n2)cc(OC)c1OC .
OUT: < 4.60
